# Run Parameters: 308.15 K; 101 kPa; Liquid
Numbers after ± are expanded uncertainties.
Record form. Attribute: speed of sound. Fill in for each entry.
Enter the number, and then the unit.

Task: May I ask what speed of sound has been recorded for C1COCCO1 ?
Output: 1312 ± 11 m/s

Task: May I ask what speed of sound has been recorded for C=COCCCC [1-(ethenyloxy)butane] ?
Output: 1072 ± 10 m/s

Task: May I ask what speed of sound has been recorded for CCCCCCOC(C)=O [hexyl ethanoate] ?
Output: 1196 ± 11 m/s

Task: May I ask what speed of sound has been recorded for C1CCOC1 [tetrahydrofuran] ?
Output: 1228 ± 11 m/s

Task: May I ask what speed of sound has been recorded for COc1ccccc1 ?
Output: 1364 ± 12 m/s
